- Assay Text: Cytotoxicity against golden hamster BSR cells assessed as reduction in cell viability incubated for 72 hrs followed by alamar blue addition further incubated for 6 hrs
- Assay type: cell-based
- Condition Set: Mesocricetus auratus
The threshold is 80 µM. Values of IC50 beneath it are tagged t; values meeting or exceeding it are tagged f.

Here's an entry: O=C(CCn1ccnc1)c1ccc(Cl)c(F)c1 . Is its IC50 below 80 µM?
f

Here is the next compound: O=C(CCn1ccnc1)c1ccc(F)c2ccccc12
t

What do you get for COc1ccc(C(=O)CCn2ccnc2[N+](=O)[O-])cc1 ?
f

----------
This listing pairs compounds with measured selectivity ratio.
- Assay Text: Selectivity index, ratio of cytotoxicity against golden hamster BSR cells to IC50 for antitrypanosomal activity against Trypanosoma cruzi trypomastigotes
- Assay type: toxicity, cell-based
- Condition Set: read-out: Selectivity Index
I only need the number, thanks.

{"Molecule Smiles": "O=C(Cn1ccnc1[N+](=O)[O-])NCc1ccccc1", "Value": 12}
{"Molecule Smiles": "O=C(CCn1ccnc1)c1cccc([N+](=O)[O-])c1", "Value": 8}
{"Molecule Smiles": "O=C(CCn1ccnc1)c1ccc(F)c2ccccc12", "Value": 4}

// next item, selectivity ratio requested
Look up selectivity ratio: COc1ccc(C(=O)CCn2ccnc2[N+](=O)[O-])cc1
9
